Test system: 323965-272-R-J2-PDC complex spheroid viability;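 note: spheroids exposed to agents for seven days before readout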
ASSAY_NAME: Anticancer human tumor 323965-272-R-J2-PDC patient-derived pancreatic carcinoma cell line growth inhibition [CLK]
RECORDED_CONDITIONS: curve of first compound; second compound 0.316 µM
pIC50: −log10 of the molar value.
VALUE_TYPE: pIC50

As a guide, the following entries are already answered.
# COMPOUND, VALUE_TYPE, MEASURED_VALUE
records = [
    ("Nc1ccccc1NC(=O)c1ccc(CNC(=O)OCc2cccnc2)cc1 + CNC(=O)c1ccc(Nc2nc(OC3CCCC3)c3c(-c4ccc5nc(C)oc5c4)c[nH]c3n2)c(OC)c1", "pIC50", 5.62),
    ("CC1(C)CCC(CN2CCN(c3ccc(C(=O)NS(=O)(=O)c4ccc(NCC5CCOCC5)c([N+](=O)[O-])c4)c(Oc4cnc5[nH]ccc5c4)c3)CC2)=C(c2ccc(Cl)cc2)C1 + CNC(=O)c1ccc(Nc2nc(OC3CCCC3)c3c(-c4ccc5nc(C)oc5c4)c[nH]c3n2)c(OC)c1", "pIC50", 5.64),
    ("CC(C)CC(NC(=O)C(Cc1ccccc1)NC(=O)c1cnccn1)B(O)O (centres undefined) + CNC(=O)c1ccc(Nc2nc(OC3CCCC3)c3c(-c4ccc5nc(C)oc5c4)c[nH]c3n2)c(OC)c1", "pIC50", 8.51),
]

Param readout= pIC50; system= 323965-272-R-J2-PDC complex spheroid viability; entry= COC1C=CCC(C)C(C)S(=O)(=O)NC(=O)c2ccc3c(c2)N(CC2CCC21)CC1(CCCc2cc(Cl)ccc21)CO3 (centres undefined) + CN1CCN(c2cc(C(=O)Nc3cc4cc(-c5cnn(C)c5)ccc4cn3)ccn2)CC1 ; returns value.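 Note: spheroids exposed to agents for seven days before readout.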
> 7.50

What is its pIC50 for 323965-272-R-J2-PDC complex spheroid viability? Entry: COc1ccc([C@@H](O)c2cc(-c3ncnc4cc(N5CCOCC5)ccc34)c(F)cc2Cl)nn1 + CN1CCN(c2cc(C(=O)Nc3cc4cc(-c5cnn(C)c5)ccc4cn3)ccn2)CC1
> 7.50

# query: pIC50 | item Nc1ccn(C2OC(CO)C(O)C2(F)F)c(=O)n1 (centres undefined) + CNC(=O)c1ccc(Nc2nc(OC3CCCC3)c3c(-c4ccc5nc(C)oc5c4)c[nH]c3n2)c(OC)c1 | system: 323965-272-R-J2-PDC complex spheroid viability;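 note: spheroids exposed to agents for seven days before readout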
> 7.50

Find the measured pIC50: item C=C(F)C(=O)N1CCN(c2nc(OCC3CCCN3C)nc3c2CCN(c2cccc4cccc(Cl)c24)C3)CC1CC#N (centres undefined) + CNC(=O)c1ccc(Nc2nc(OC3CCCC3)c3c(-c4ccc5nc(C)oc5c4)c[nH]c3n2)c(OC)c1 , target or system 323965-272-R-J2-PDC complex spheroid viability.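 Note: spheroids exposed to agents for seven days before readout.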
> 7.50

Could you share what pIC50 was measured for Cn1ncnc1[C@H]1c2n[nH]c(=O)c3cc(F)cc(c23)N[C@@H]1c1ccc(F)cc1 + CNC(=O)c1ccc(Nc2nc(OC3CCCC3)c3c(-c4ccc5nc(C)oc5c4)c[nH]c3n2)c(OC)c1 , tested on 323965-272-R-J2-PDC complex spheroid viability?;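 note: spheroids exposed to agents for seven days before readout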
< 7.00

What reported pIC50 corresponds to NC(=O)C(=Cn1cnc(-c2cc(C(F)(F)F)cc(C(F)(F)F)c2)n1)c1cncnc1 + CN1CCN(c2cc(C(=O)Nc3cc4cc(-c5cnn(C)c5)ccc4cn3)ccn2)CC1 on 323965-272-R-J2-PDC complex spheroid viability?
> 8.02
